src = patent US20230312550A1

biological target: hFAP (M39-A757) (Homo sapiens (Human), UniProt Q12884)
Sequence (Q12884 39-757): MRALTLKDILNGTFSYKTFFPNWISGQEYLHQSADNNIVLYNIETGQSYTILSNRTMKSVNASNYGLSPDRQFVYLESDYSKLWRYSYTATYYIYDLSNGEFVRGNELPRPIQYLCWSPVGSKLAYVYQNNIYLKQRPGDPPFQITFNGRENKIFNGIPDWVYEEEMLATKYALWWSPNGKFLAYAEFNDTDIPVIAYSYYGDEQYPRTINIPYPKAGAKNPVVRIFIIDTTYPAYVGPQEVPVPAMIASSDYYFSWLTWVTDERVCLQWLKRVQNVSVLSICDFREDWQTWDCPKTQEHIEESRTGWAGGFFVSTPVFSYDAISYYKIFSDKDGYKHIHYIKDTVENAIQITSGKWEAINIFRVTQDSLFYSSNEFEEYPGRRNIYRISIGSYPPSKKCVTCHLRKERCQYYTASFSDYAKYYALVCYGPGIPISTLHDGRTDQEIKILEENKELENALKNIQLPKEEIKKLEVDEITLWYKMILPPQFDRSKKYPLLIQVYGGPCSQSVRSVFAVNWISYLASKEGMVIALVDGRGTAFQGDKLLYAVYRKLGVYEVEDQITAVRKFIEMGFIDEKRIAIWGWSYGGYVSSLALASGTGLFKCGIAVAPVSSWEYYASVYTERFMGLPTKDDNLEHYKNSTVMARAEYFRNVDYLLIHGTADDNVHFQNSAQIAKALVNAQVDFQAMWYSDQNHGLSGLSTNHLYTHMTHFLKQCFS
Please respond with reported pKd for every item in the list.
Bear in mind: pKd is minus log10 of a mol/L concentration; give just that figure.

Q. # query: pKd | item "N#C[C@@H]1CSCN1C(=O)CNC(=O)c1ccnc2ccc(N3CC(F)(CF)C3)cc12" | system: hFAP (M39-A757) (Homo sapiens (Human), UniProt Q12884)
A. 10.19

Q. Thanks! And "Cc1ccn(-c2ccc3nccc(C(=O)NCC(=O)N4CSC[C@H]4C#N)c3c2)c1" ?
A. 10.92

Q. Next compound: "N#C[C@@H]1CSCN1C(=O)CNC(=O)c1ccnc2ccc(N3CC(F)(F)C3)cc12"
A. 10.07

Q. Next: "C[C@H]1CCN(c2ccc3nccc(C(=O)NCC(=O)N4CSC[C@H]4C#N)c3c2)CCO1"
A. 9.92

Q. Another compound to look at: N#C[C@@H]1CSCN1C(=O)CNC(=O)c1ccnc2ccc(-c3ccnn3[C@H]3CCCCO3)cc12 (mixture of isomers)
A. 8.72

Q. Follow-up entry: "CC1(C)CCCN(c2ccc3nccc(C(=O)NCC(=O)N4CSC[C@H]4C#N)c3c2)C1=O"
A. 9.96

Q. Param item: "COC[C@@H]1[C@@H](C)OCCN1c1ccc2nccc(C(=O)NCC(=O)N3CSC[C@H]3C#N)c2c1"
A. 9.96

Q. Follow-up item: "N#C[C@@H]1CSCN1C(=O)CNC(=O)c1ccnc2ccc(N3CCC34CCC4)cc12"
A. 9.82

###

target: hFAP (M39-A757) (Homo sapiens (Human)); test: hFAP binding assay (surface plasmon resonance); settings: SPR, 20° C., single cycle kinetics
Please provide measured hFAP Binding assay k(on) for the entries that follow.
All answers are understood in M⁻¹ s⁻¹, so give the number only.

Q. Requested read-out: hFAP Binding assay k(on). Entry: "N#C[C@@H]1CSCN1C(=O)CNC(=O)c1ccnc2ccc(-c3ccc(F)cn3)cc12"
A. 3000000

Q. Also, "N#C[C@@H]1CSCN1C(=O)CNC(=O)c1ccnc2ccc(N3CC4(CC(F)C4)C3)cc12" please.
A. 3100000

Q. Note, next up: "C[C@@H]1CN(c2ccc3nccc(C(=O)NCC(=O)N4CSC[C@H]4C#N)c3c2)C[C@H](C)[C@@H]1O"
A. 740000

Q. And the next one, "N#C[C@@H]1CSCN1C(=O)CNC(=O)c1ccnc2ccc(N3CC(CC(F)(F)F)C3)cc12" ?
A. 3100000

Q. What do you have for "CC1(C)CCN(c2ccc3nccc(C(=O)NCC(=O)N4CSC[C@H]4C#N)c3c2)CC1" ?
A. 1100000

Q. How about this molecule: "CC1(C)CCN(c2ccc3nccc(C(=O)NCC(=O)N4CSC[C@H]4C#N)c3c2)C(=O)O1"
A. 440000

Q. And "N#C[C@@H]1CSCN1C(=O)CNC(=O)c1ccnc2ccc(N3CC[C@H](CO)C3)cc12" ?
A. 8500000

Q. Now the same for "C[C@@H]1CN(c2ccc3nccc(C(=O)NCC(=O)N4CSC[C@H]4C#N)c3c2)C[C@H](C)O1"
A. 1000000

Q. Entry "N#C[C@@H]1CSCN1C(=O)CNC(=O)c1ccnc2ccc(N3CCC(F)(F)CC3)cc12" please
A. 900000

Q. Could you do the same for "N#C[C@@H]1CSCN1C(=O)CNC(=O)c1ccnc2ccc(N3CCC4(CCOCC4)CC3)cc12" , please?
A. 1900000

Q. Then this molecule: "N#C[C@@H]1CSCN1C(=O)CNC(=O)c1ccnc2ccc(N3CCCCC3=O)cc12"
A. 1300000

Q. Try this molecule too: "N#C[C@@H]1CSCN1C(=O)CNC(=O)c1ccnc2ccc(-c3ccn[nH]3)cc12"
A. 3200000

Q. Next record, please: "N#C[C@@H]1CSCN1C(=O)CNC(=O)c1ccnc2ccc(N3CCO[C@H](C(F)(F)F)C3)cc12"
A. 1100000

Q. What about this molecule? "Cc1cc(C(=O)NCC(=O)N2CSC[C@H]2C#N)c2cc(N3CCOCC3)ccc2n1"
A. 1200000

Q. Please give the result for "N#C[C@@H]1CSCN1C(=O)CNC(=O)c1ccnc2ccc(N3CC4(CC4)C3)cc12" too.
A. 1400000

Q. Repeat for the following molecule: "CC1CN(c2ccc3nccc(C(=O)NCC(=O)N4CSC[C@H]4C#N)c3c2)C1"
A. 1400000

Q. Try "N#C[C@@H]1CSCN1C(=O)CNC(=O)c1ccnc2ccc(N3CC(CCF)C3)cc12" next.
A. 1400000
